# assay summary: label from the status in PepcDB records
measured endpoint: protein production

residue_string=MRVSVVIPARNEEAYLPSALEAVLAQTLPPFEVIVVDNASTDRTREVAEAFGARVVFCGRKGVAYARQAGLLAARGEWVAMTDADSLPTPRWLERLAHKAPGAVAVYGPLRFYGVSPLEAAFSEWGYRAFLNLMALLGRPNLAGANMMVLKEAALKVGGFPEVEAREDVLLGWRLKALGPVRYARDALVLTSARRLQGGWGRFLLRQARNLLGDPRGYFGEAGERER result=failed
residue_string=QIKIRKATKEDWEKIYQLYNSLSDEDLYLRFFHLYRITEEDAKKIASNEDHVTFLAEVDGKVVGEASLHKDGEFSLVVHRNYRTLGIGTLLVKTLIEEAKKSGLSTVKFYTLPENTPMIKIGRKLGFKMRFYEDEVYGEMRL result="not failed"
residue_string=MSASVLSDPTMLISTPEVILVSPVSVTQISGDEPDSVTCDCCGLTEECTQSYIEMVRERYMGKWICGLCSEAVKYEVMRTKRLLTTEEAMARHMNMCNKFKSSSPPPNPTGHLISAMRQILRKSLDSPRMLRSMPNSPSKDDQDHHHDCVSNVLSRSDSCFASLT result=failed
residue_string=MSTSQTKNVSIDTIKEFMYQVLLKVGSDEENARMVRDTLIAADLRGMDTHGIQRFKTVYIDRIKKGMINPTAKPSIIRETSTTCVLDGNNGFGHVNGTIGMKMAIEKAKKYGMGMVVVRNSTHFGIAGYYSLLAAQEGCIGICGTNARSSVAATFGDEPILGTNPLAIGIPSDEAFPYCFDGATSISPTGRFEKYVRMGKTVDKSWASMKGGKPIEDPKELLENYPKGKAYLHPLGGSDEVSGSHKGYCLSEFVEIMSSCLSIANFLNHIEEEKEKSGKFSLGHFFIAINVECFRDLNEFKKNVGDINRTLRNTDKLPGHDRIYTAGEKEYETEQKRRKFGDDLPLVTINEMKELSSFYNVPLPF result="not failed"
